Values were extracted from patent US6727265B2.

molecular target: purified recombinant HIV RT (Human immunodeficiency virus type 1 group M subtype B); assay: biochemical
Entries and their pIC50 values follow.
Lab note — pIC50 values are minus log10 of concentrations in M.

>>> value_reported("S=C(NCCOc1ccccc1)Nc1ccccn1")
5.00
>>> value_reported("S=C(NCCOc1ccccc1)Nc1ccc(Br)cn1")
5.82
>>> value_reported("Oc1ccc(CCNC(=S)Nc2ccc(Br)cn2)cc1 [VII, reference compound]")
4.06

Give the reported value of pIC50 for this record: `S=C(NCCOc1ccccc1)Nc1ccc(Cl)cn1`
5.82

Give the reported value of pIC50 for this record: S=C(NCCc1ccc(Cl)cc1)Nc1ccc(Br)cn1 [V, reference compound]
5.60

* * *

experiment: cytotoxicity (CC50); assay type: cell-based; details: CC50 values
Entries and their CC values follow.
Record the value in µM, omitting the unit from your answer.

Give the reported value of CC for this record: `S=C(NCCOc1ccccc1)Nc1ccc(Br)cn1`
92

Give the reported value of CC for this record: `S=C(NCCOc1ccccc1)Nc1ccccn1`
55
